Target of assay: GST-PPARG-LBD (Homo sapiens)
Construct: A mixture of 5 nM GST-PPARG-LBD; purchased Invitrogen
Sequence (P37231 238-503 limits assumed): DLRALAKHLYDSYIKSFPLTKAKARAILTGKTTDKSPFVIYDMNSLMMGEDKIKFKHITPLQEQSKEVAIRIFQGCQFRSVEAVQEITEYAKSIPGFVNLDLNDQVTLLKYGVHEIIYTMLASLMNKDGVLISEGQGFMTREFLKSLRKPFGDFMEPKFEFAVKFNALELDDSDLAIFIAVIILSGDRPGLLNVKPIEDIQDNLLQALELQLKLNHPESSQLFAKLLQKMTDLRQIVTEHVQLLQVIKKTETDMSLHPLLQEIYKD
Method summary: Lanthascreen PPARG competitive binding assay (Invitrogen)
Study conditions: Table 3, Lantha 2; read-out: IC50 (nM) Lantha 2
Answer each item with its documented IC50.
Numbers only here, please. The scale is nM.

Please report IC50 with GST-PPARG-LBD (Homo sapiens) for item Cc1nn(Cc2ccc(-c3ccccc3C#N)cc2)c2ccc(C(=O)N[C@@H](C)c3ccc(Br)cc3)cc12 . 37.7

Return reported IC50 for target or system GST-PPARG-LBD (Homo sapiens), item COC[C@H](C)NC(=O)c1ccc2c(c1)c(C)nn2Cc1ccc(-c2ccccc2C(=O)O)cc1 . 367

Consider the compound COCCNC(=O)c1ccc2c(c1)c(C(C)C)nn2Cc1ccc(-c2ccccc2C(=O)O)cc1 tested on GST-PPARG-LBD (Homo sapiens); state its IC50. 432

Report its IC50 with GST-PPARG-LBD (Homo sapiens) as the test system: Cc1nn(Cc2ccc(-c3ccccc3C(=O)O)cc2)c2ccc(C(=O)N[C@@H](C)c3cccc(C(C)C)c3)cc12 94.8

====

For each of the molecules below, state its IC50.
Target of assay: GST-PPARG-LBD (Homo sapiens)
Construct: A mixture of 5 nM GST-PPARG-LBD; purchased Invitrogen
Method summary: Lanthascreen PPARG competitive binding assay (Invitrogen)
Study conditions: Table 3, Lantha 2; read-out: IC50 (nM) Lantha 2
Answer in nM, number only, no unit symbol.

Complete the entry with IC50 for Cc1nn(Cc2ccc(-c3ccccc3C(=O)O)cc2)c2ccc(C(=O)NCC3CCC(C)CC3)cc12 (stereo not shown) 82.8

Please list IC50 recorded for the molecule Cc1nn(Cc2ccccn2)c2ccc(C(=O)N[C@@H](C)c3ccc(Br)cc3)cc12 877

Supply recorded IC50 for C=C(C)c1nn(Cc2ccc(-c3ccccc3C(=O)O)cc2)c2ccc(C(=O)NCCOC)cc12 here. 166

Supply recorded IC50 for CCC(NC(=O)c1ccc2c(c1)c(C(C)C)nn2Cc1ccc(-c2ccccc2C(=O)O)cc1)c1ccccc1 (stereo not shown) here. 0.681

Please list IC50 recorded for the molecule Cc1nn(Cc2ccc(-c3ccccc3C(=O)O)cc2)c2ccc(C(=O)N[C@@H](C)C3CCCCC3)cc12 41.7

For CCC(NC(=O)c1ccc2c(c1)c(C)nn2Cc1ccc(-c2ccccc2C(=O)O)cc1)c1ccccc1 (stereo not shown) , write its IC50. 0.579

Consider the molecule Cc1nn(Cc2ccc(C3(C(=O)O)CC3)cc2)c2ccc(C(=O)N[C@@H](C)c3ccc(Br)cc3)cc12 . State its measured IC50. 144

====

So I've got a bunch of molecules here, and I need their IC50 values.
Target of assay: GST-PPARG-LBD (Homo sapiens)
Construct: A mixture of 5 nM GST-PPARG-LBD; purchased Invitrogen
Method summary: Lanthascreen PPARG competitive binding assay (Invitrogen)
Study conditions: Table 3, Lantha 2; read-out: IC50 (nM) Lantha 2
Note: unit nM is implicit; provide only the numeric part.

Let me know recorded IC50 for Cc1nn(Cc2ccccc2)c2ccc(C(=O)N[C@@H](C)c3ccc(Br)cc3)cc12 [compound 52] , thanks. 932

Check the records and state IC50 for COCCNC(=O)c1ccc2c(c1)c(C)nn2Cc1ccc(-c2ccccc2C(=O)O)cc1 [compound 22] 824

Look up and state reported IC50 for CCOCCNC(=O)c1ccc2c(c1)c(C)nn2Cc1ccc(-c2ccccc2C(=O)O)cc1 [compound 36] 344

Return reported IC50. Input molecule: CC[C@H](NC(=O)c1ccc2c(c1)c(C(C)C)nn2Cc1ccc(-c2ccccc2C(=O)O)cc1)c1ccc(Br)cc1 [compound 49] 0.119

Provide only the value of recorded IC50 for CC(C)c1nn(Cc2ccc(-c3ccccc3C(=O)O)cc2)c2ccc(C(=O)NC3CCCC3)cc12 [compound 48] 259

Note IC50 for the molecule shown: Cc1nn(Cc2ccc(-c3ccccc3C(=O)O)cc2)c2ccc(C(=O)N[C@@H]3COc4ccccc4C3)cc12 [compound 34] 147

Supply reported IC50 belonging to this molecule: Cc1nn(Cc2ccc(Cl)cc2)c2ccc(C(=O)N[C@@H](C)c3ccc(Br)cc3)cc12 [compound 53] 1050

Find the measured IC50 of Cc1nn(Cc2ccc(-c3ccccc3C(=O)O)cc2)c2ccc(C(=O)NC3CCC(C)CC3)cc12 (centres unmarked) [compound 25] and report it. 82.8

Value source: patent US20140288090A1
